Assay: in vivo
Conditions: rat, brain / plasma
Description: Ratio of fAUC in brain to plasma in rat
Assay Endpoint: Kp uu
Give the figure only, with no unit attached.

Q: # input compound: C[C@H]1Oc2cc(cnc2N)-c2c(nn(C)c2C#N)CN(C)C(=O)c2ccc(F)cc21 ; wanted: its Kp uu
Result: 0.21

----------
Assay: in vitro
Conditions: human, liver microsomes
Description: Intrinsic clearance in human liver microsomes
Assay Endpoint: CLint scaled (mL/min/kg)
Give the value in mL/min/kg but do not write mL/min/kg after it.

Q: # input compound: Cc1[nH][n+](C)c2c1-c1cnc(N)c(c1)O[C@H](C)c1cc(F)ccc1C(=O)N(C)C2 ; wanted: its CLint scaled
Result: 8.6

----------
Experiment: in vitro
Details: dog, MDCK
Description: Intrinsic absorptive permeability from apical side to basolateral side of dog RRCK cells
Assay Endpoint: Papp A→B (×10⁻⁶ cm/s)
Give the value in ×10⁻⁶ cm/s but do not write ×10⁻⁶ cm/s after it.

Q: # input compound: C[C@H]1Oc2cc(cnc2N)-c2c(nn(C)c2C#N)CN(C)C(=O)c2ccc(F)cc21 ; wanted: its Papp A→B
Result: 19.3

----------
Test: in vivo
Conditions: rat, CSF / free plasma
Description: Ratio of AUC in CSF to free plasma in rat
Assay Endpoint: Kp uu

Q: # input compound: C[C@H]1Oc2cc(cnc2N)-c2c(nn(C)c2C#N)CN(C)C(=O)c2ccc(F)cc21 [LORLATINIB] ; wanted: its Kp uu
Result: 0.31

----------
Assay Endpoint: Ki

Q: # returns recorded Ki (system: Proto-oncogene tyrosine-protein kinase ROS (Homo sapiens, UniProt P08922, G2032R)) for CCc1cc2c(cc1N1CCC(N3CCOCC3)CC1)C(C)(C)c1[nH]c3cc(C#N)ccc3c1C2=O
Sequence (P08922 28-2347 G2032R limits assumed): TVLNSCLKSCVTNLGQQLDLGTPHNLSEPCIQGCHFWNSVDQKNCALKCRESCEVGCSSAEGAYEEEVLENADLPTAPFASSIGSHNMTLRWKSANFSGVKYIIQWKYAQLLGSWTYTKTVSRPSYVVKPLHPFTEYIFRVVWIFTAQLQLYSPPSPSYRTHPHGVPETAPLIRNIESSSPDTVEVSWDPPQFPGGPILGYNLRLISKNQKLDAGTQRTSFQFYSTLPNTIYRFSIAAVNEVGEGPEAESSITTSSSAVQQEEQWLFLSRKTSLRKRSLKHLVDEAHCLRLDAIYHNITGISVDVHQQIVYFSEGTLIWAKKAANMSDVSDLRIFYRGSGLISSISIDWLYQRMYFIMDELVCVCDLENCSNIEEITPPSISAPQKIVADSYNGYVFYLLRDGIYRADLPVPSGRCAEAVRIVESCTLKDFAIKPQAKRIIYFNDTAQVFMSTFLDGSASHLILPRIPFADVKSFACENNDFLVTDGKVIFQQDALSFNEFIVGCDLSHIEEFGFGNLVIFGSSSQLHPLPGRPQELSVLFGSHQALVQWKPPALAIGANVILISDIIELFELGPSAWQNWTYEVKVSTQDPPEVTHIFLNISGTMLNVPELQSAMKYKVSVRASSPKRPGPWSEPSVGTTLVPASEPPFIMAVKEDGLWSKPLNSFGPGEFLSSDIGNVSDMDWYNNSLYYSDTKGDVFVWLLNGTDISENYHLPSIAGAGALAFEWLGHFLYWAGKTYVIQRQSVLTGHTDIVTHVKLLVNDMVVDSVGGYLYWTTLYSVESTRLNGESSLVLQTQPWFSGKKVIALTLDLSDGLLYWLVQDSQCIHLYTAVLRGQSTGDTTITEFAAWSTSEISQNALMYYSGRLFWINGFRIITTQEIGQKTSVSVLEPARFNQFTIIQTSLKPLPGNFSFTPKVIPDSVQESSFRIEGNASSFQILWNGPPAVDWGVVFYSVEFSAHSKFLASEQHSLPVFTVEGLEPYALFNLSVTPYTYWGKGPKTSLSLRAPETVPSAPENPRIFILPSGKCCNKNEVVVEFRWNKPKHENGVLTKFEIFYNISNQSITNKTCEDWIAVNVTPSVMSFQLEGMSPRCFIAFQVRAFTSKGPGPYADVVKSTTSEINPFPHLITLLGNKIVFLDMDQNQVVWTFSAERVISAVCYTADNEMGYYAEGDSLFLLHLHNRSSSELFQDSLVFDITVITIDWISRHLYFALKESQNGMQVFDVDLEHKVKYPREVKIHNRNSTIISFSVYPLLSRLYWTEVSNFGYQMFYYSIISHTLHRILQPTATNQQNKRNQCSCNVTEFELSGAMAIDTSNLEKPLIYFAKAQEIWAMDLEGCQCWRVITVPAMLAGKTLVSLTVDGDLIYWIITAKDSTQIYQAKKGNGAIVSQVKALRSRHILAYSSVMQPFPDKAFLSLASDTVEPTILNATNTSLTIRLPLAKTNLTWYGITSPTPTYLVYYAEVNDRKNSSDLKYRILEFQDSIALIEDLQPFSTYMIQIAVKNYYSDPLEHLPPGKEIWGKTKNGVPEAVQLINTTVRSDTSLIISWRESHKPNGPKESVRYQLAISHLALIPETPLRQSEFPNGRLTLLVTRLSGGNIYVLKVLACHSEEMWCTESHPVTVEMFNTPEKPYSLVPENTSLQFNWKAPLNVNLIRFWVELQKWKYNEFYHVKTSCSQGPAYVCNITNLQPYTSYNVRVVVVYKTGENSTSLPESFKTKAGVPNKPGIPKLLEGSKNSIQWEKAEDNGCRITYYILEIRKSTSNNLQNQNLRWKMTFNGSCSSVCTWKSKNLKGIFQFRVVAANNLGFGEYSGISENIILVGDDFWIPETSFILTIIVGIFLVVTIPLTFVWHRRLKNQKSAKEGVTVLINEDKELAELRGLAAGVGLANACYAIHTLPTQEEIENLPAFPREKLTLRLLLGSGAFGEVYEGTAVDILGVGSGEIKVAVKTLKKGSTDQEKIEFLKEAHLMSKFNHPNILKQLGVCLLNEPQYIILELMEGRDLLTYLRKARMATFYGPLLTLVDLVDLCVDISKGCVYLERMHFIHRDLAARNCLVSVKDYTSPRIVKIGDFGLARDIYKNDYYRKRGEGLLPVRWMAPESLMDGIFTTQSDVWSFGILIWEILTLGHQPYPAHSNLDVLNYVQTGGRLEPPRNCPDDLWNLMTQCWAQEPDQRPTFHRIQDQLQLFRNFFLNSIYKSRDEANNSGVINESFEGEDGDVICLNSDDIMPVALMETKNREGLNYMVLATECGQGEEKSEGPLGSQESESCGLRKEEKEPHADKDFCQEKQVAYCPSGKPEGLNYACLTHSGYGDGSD
Result: > 3 µM

----------
Test: physchem
Conditions: octanol/water, pH 7.4
Assay Endpoint: logD
Give the figure only, with no unit attached.

Q: # input compound: Cc1[nH][n+](C)c2c1-c1cnc(N)c(c1)O[C@H](C)c1cc(F)ccc1C(=O)N(C)C2 ; wanted: its logD
Result: 2.2

----------
Assay: in vitro
Conditions: dog, MDCK
Description: Intrinsic absorptive permeability from basolateral side to apical side of dog RRCK cells
Assay Endpoint: Papp B→A (×10⁻⁶ cm/s)
Give the value in ×10⁻⁶ cm/s but do not write ×10⁻⁶ cm/s after it.

Q: # input compound: C[C@H]1Oc2cc(cnc2N)-c2c(nn(C)c2C#N)CN(C)C(=O)c2ccc(F)cc21 ; wanted: its Papp B→A
Result: 28
